Data provenance is patent US11992497B2.

test: Quantification of CBG and CBG glucuronide in rat plasma (LC-MS/MS); format: in vivo, Sprague-Dawley rat; conditions: both sexes, Sprague-Dawley, rat, plasma, oral, 100 mg/kg, CBG 100 mg/kg oral gavage once daily; 2 hr post Rx; read-out: CBG concentration in rat plasma (Day 21)
measuredAttribute: concentration at 2 h (ng/mL)
A number alone suffices; assume ng/mL.

Read off the recorded concentration at 2 h for CCCCCc1cc(O)c(C/C=C(\C)CCC=C(C)C)c(O)c1 [CBG, cannabigerol]
307

* * *

Target: UGT2B15 (Homo sapiens)
Sequence (P54855 24-530): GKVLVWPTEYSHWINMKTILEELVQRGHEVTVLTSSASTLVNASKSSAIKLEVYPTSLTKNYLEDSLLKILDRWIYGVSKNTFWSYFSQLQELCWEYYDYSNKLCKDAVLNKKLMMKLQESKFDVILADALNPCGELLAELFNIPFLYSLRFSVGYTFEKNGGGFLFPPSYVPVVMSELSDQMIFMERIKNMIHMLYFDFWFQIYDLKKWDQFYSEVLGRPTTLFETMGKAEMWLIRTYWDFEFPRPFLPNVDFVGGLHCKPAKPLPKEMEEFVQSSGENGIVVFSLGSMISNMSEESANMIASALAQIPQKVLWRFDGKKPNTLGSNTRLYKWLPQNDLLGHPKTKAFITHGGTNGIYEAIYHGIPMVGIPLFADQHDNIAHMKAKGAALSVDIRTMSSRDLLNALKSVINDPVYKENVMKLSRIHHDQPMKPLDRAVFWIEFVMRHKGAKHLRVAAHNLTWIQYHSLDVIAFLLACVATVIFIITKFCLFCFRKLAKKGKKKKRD
Test: in vitro
Settings: recombinant enzyme, pH 7.4
measuredAttribute: microsomal CLint at 1 µM
Enter the number, and then the unit.

// fetch microsomal CLint at 1 µM for O=c1cc(C(F)(F)F)c2ccc(O)cc2o1 [7-OH4trifluoromethylcoumarin, 7-hydroxy-4-trifluoromethylcoumarin] ; system: UGT2B15 (Homo sapiens)
55.8 µL/min/mg

// fetch microsomal CLint at 1 µM for `CCCCCc1cc(O)c(C/C=C(\C)CCC=C(C)C)c(O)c1` ; system: UGT2B15 (Homo sapiens)
29.1 µL/min/mg

// fetch microsomal CLint at 1 µM for `CCCCCc1cc(O)c(C/C=C(\C)CCC=C(C)C)c(OC)c1` ; system: UGT2B15 (Homo sapiens)
24.2 µL/min/mg

* * *

Assay: Quantification of CBG and CBG glucuronide in rat plasma (LC-MS/MS)
Type: in vivo, Sprague-Dawley rat
Conditions: both sexes, Sprague-Dawley, rat, plasma, oral, 10 mg/kg, CBG 10 mg/kg oral gavage once daily; 8 hr post Rx; read-out: CBG concentration in rat plasma (Day 21)
Description: The purpose of this study was to quantify cannabigerol (CBG) in rat plasma and brain. Seven- to nine-week-old male and female Sprague-Dawley received either a single dose or once daily dosing for 21 days of vehicle or CBG at three different dosage levels as shown in the Table below. Approximately 0.2-0.25 mL blood was collected during the first 24 hours after the single dose, and at multiple times points after the terminal dose for the animals receiving daily dosing for 21 days. […]
measuredAttribute: concentration at 8 h (ng/mL)
A number alone suffices; assume ng/mL.

Read off the recorded concentration at 8 h for `CCCCCc1cc(O)c(C/C=C(\C)CCC=C(C)C)c(O)c1`
2.55

* * *

assay: Metabolic stability in human intestine microsomes (UDPGA, UGT activity only); type: in vitro ADME; details: human, pooled intestinal microsomes, pH 7.4; 1 μM; 0.5 mg/mL microsomes + alamethicin; UDPGA
measuredAttribute: half-life at 1 µM (min)
A number alone suffices; assume min.

Read off the recorded half-life at 1 µM for CCCCCc1cc(O)c(C/C=C(\C)CCC=C(C)C)c(O)c1 [CBG, cannabigerol]
1.57

* * *

Target: UGT1A1 (Homo sapiens, UniProt P22309)
Sequence (P22309 26-533): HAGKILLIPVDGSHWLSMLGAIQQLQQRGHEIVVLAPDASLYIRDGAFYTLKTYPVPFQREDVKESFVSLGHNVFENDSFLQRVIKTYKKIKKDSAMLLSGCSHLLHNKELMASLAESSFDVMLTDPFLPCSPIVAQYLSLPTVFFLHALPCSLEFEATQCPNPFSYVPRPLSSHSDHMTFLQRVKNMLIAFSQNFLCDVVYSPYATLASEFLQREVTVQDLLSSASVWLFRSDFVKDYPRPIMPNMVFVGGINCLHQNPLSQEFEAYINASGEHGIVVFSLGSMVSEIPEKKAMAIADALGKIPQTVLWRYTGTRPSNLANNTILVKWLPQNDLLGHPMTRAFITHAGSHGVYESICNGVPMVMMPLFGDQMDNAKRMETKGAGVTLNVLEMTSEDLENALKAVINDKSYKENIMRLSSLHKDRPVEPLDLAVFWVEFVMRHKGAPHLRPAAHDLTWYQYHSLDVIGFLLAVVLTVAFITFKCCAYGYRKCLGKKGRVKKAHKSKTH
Assay: UGT reaction phenotyping, recombinant Supersomes
Conditions: recombinant enzyme, pH 7.4
measuredAttribute: microsomal CLint at 1 µM (µL/min/mg)
A number alone suffices; assume µL/min/mg.

Observe how each entry below is paired with its result.
CCCCCc1cc(O)c(C/C=C(\C)CCC=C(C)C)c(O)c1: 18
CCCCCc1cc(O)c(C/C=C(\C)CCC=C(C)C)c(OC)c1: 13.5

Read off the recorded microsomal CLint at 1 µM for O=c1cc(C(F)(F)F)c2ccc(O)cc2o1 [7-OH4trifluoromethylcoumarin, 7-hydroxy-4-trifluoromethylcoumarin]
41.8

* * *

experiment: Quantification of CBG and CBG glucuronide in rat plasma (LC-MS/MS); type: in vivo, Sprague-Dawley rat; conditions: both sexes, Sprague-Dawley, rat, plasma, oral, 10 mg/kg, CBG 10 mg/kg oral gavage once; 2 hr post Rx; read-out: CBG concentration in rat plasma (Day 1)
measuredAttribute: concentration at 2 h (ng/mL)
A number alone suffices; assume ng/mL.

Read off the recorded concentration at 2 h for `CCCCCc1cc(O)c(C/C=C(\C)CCC=C(C)C)c(O)c1`
12

* * *

experiment: Quantification of CBG and CBG glucuronide in rat plasma (LC-MS/MS); format: in vivo, Sprague-Dawley rat; settings: both sexes, Sprague-Dawley, rat, plasma, oral, 30 mg/kg, CBG 30 mg/kg oral gavage once; 30 min post Rx; read-out: CBG concentration in rat plasma (Day 1)
measuredAttribute: concentration at 30 min (ng/mL)
A number alone suffices; assume ng/mL.

Read off the recorded concentration at 30 min for `CCCCCc1cc(O)c(C/C=C(\C)CCC=C(C)C)c(O)c1`
15.2

* * *

experiment: Hepatocyte stability and metabolite profiling; type: in vitro ADME, monkey; conditions: cryopreserved hepatocytes in suspension; Monkey cryopreserved hepatocytes
measuredAttribute: half-life (min)
A number alone suffices; assume min.

Read off the recorded half-life for `CCCCCc1cc(O)c(C/C=C(\C)CCC=C(C)C)c(O)c1`
11.3

* * *

test: PK and Tmax of CBD and Compound 3 after IP administration; format: in vivo; details: mouse, in vivo; plasma, 100 mg/kg IP, male C57BL/6 mice; read-out: AUC(0-t) (obs area)
Here, each record is paired with measured AUC(0-t) data.
A number alone suffices; assume ng·h/mL.

C=C(C)[C@@H]1CCC(C)=C[C@H]1c1c(O)cc(CCCCC)cc1OC: 30200

Read off the recorded AUC(0-t) for C=C(C)[C@@H]1CCC(C)=C[C@H]1c1c(O)cc(CCCCC)cc1O [CBD, cannabidiol, reference compound]
6830

* * *

test: Hepatocyte stability and metabolite profiling; assay type: in vitro ADME; settings: cryopreserved hepatocytes in suspension; Mouse cryopreserved hepatocytes
measuredAttribute: hepatocyte CLint (µL/min/1e6 cells)
A number alone suffices; assume µL/min/1e6 cells.

Read off the recorded hepatocyte CLint for `CCCCCc1cc(O)c(C/C=C(\C)CCC=C(C)C)c(O)c1`
32.8

* * *

experiment: Quantification of CBG in rat brain tissue (LC-MS/MS); type: in vivo, Sprague-Dawley rat; conditions: female, Sprague-Dawley, rat, brain, oral, 100 mg/kg, CBG 100 mg/kg once daily; 24 hrs post Rx; female rats; read-out: CBG concentration in rat brain tissue (Day 21), Average
measuredAttribute: concentration at 24 h (ng/g)
A number alone suffices; assume ng/g.

Read off the recorded concentration at 24 h for `CCCCCc1cc(O)c(C/C=C(\C)CCC=C(C)C)c(O)c1`
299

* * *

test: Hepatocyte stability and metabolite profiling; assay type: in vitro ADME, rat; conditions: cryopreserved hepatocytes in suspension; Rat cryopreserved hepatocytes
measuredAttribute: half-life (min)
A number alone suffices; assume min.

Read off the recorded half-life for CCCCCc1cc(O)c(C/C=C(\C)CCC=C(C)C)c(O)c1 [CBG, cannabigerol]
49

* * *

Assay: Hepatocyte stability and metabolite profiling
Assay type: in vitro ADME, dog
Details: cryopreserved hepatocytes in suspension; Dog cryopreserved hepatocytes
Method: The objective of this study was to investigate the stability of the test compound, CBG, in human, rat, dog, mouse, monkey and minipig cryopreserved hepatocytes. Follow-on metabolite profiling was performed. CBG was incubated up to 2 hr with cryopreserved hepatocytes. […] The termination plates were centrifuged and sample supernatants were analysed using Cyprotex generic LC MS/MS conditions to generate intrinsic clearance values for CBG. […]
measuredAttribute: half-life

Read off the recorded half-life for CCCCCc1cc(O)c(C/C=C(\C)CCC=C(C)C)c(O)c1 [CBG, cannabigerol]
52.7 min
